assay remarks: CellTiter-Glo luminescent readout of SW480 viability loss, NPC library primary (AID 1117343)
condition notes: CellTiter-Glo luminescence; at 20 µM (top of the series)
Active and inactive are the calls of the source.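 The calls were made as follows: active = compounds that lower viability of the colon cancer cells in the luminescence readout, with no numeric limit stated; inactive = the rest.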
Outcomes: active, inactive

# compound, classification
rows = [
    ("O=Cc1ccccc1C=O", "inactive"),
    ("CCN(CC)CC(=O)Nc1c(C)cccc1C(=O)OC", "inactive"),
    ("CC(=O)OC[C@H]1O[C@@H](OC(C)=O)[C@H](OC(C)=O)[C@@H]1OC(C)=O", "inactive"),
    ("COc1cc(C(=O)N2CCCCCCC2)cc(OC)c1OC", "inactive"),
    ("CC(C)(C)CC(=O)OCC(=O)[C@@]1(O)CC[C@H]2[C@@H]3CCC4=CC(=O)C=C[C@]4(C)[C@H]3[C@@H](O)C[C@@]21C", "active"),
    ("NNC(=O)CP(=O)(c1ccccc1)c1ccccc1", "inactive"),
    ("CO[C@@H]1[C@@H](O[C@@H]2O[C@H](C)[C@@H](O[C@H]3C[C@@](C)(O)[C@@H](O)[C@H](C)O3)[C@H](N(C)C)[C@H]2O)[C@@H](CC=O)C[C@@H](C)[C@@H](O[C@@H]2CC[C@H](N(C)C)[C@@H](C)O2)/C=C/C=C/C[C@@H](C)OC(=O)C[C@H]1OC(C)=O", "active"),
    ("O=C(O)c1ccccc1NCCc1ccccc1", "active"),
    ("C[C@@H]1CCC[C@H](C)N1CCCC(O)(c1ccccc1)c1ccccn1 (stereo not given in full)", "inactive"),
    ("O=C(O)c1ccccc1Nc1cc(Cl)ccc1C(=O)O", "inactive"),
    ("N[C@H]1CN(c2c(F)cc3c(=O)c(C(=O)O)cn(C4C[C@@H]4F)c3c2Cl)CC12CC2 (stereo not given in full)", "active"),
    ("COc1cc(O)cc(O)c1", "inactive"),
    ("CCOC(=O)Cn1cccc1-c1nc(-c2ccc(OC)cc2)c(-c2ccc(OC)cc2)s1", "active"),
    ("O=C(O)[C@@H]1C(=CCO)O[C@@H]2CC(=O)N12", "inactive"),
    ("CC(=O)O[C@@H]1C(=O)O[C@@H]2[C@H]1OC(=O)[C@@H]2OC(C)=O", "inactive"),
    ("COC(=O)/C=C(/C)N", "inactive"),
    ("OC1(c2ccccc2)CCNCC1", "inactive"),
    ("Cc1nc(-c2ccc(Cl)cc2)oc1COC(C)(C)C(=O)O", "inactive"),
    ("COc1cc2nc(N3CCN(C(=O)c4ccco4)CC3)nc(N)c2cc1OC", "active"),
    ("O=S(=O)(O)CC(S)CS (stereo not given)", "inactive"),
    ("CC[C@@]1(c2ccccc2)NC(=O)N(C)C1=O", "inactive"),
    ("O=C(O)[C@@H]1CCCN1", "inactive"),
    ("Clc1cccc(Cl)c1NC1=NCCN1", "inactive"),
    ("CCOC(=O)C(=O)c1csc(NC=O)n1", "inactive"),
    ("Oc1cccc(-c2c3nc(c(-c4cccc(O)c4)c4ccc([nH]4)c(-c4cccc(O)c4)c4nc(c(-c5cccc(O)c5)c5ccc2[nH]5)CC4)C=C3)c1", "active"),
    ("Nc1nc2ccc(OC(F)(F)F)cc2s1", "active"),
    ("COc1cc2c(cc1OC)C(=O)CC2", "inactive"),
    ("N[C@@H]1CONC1=O", "inactive"),
    ("COC(=O)C(CN)c1c[nH]c2ccc(OC)cc12 (stereo not given)", "inactive"),
    ("C[C@@H](O)[C@H]1C(=O)N2C(C(=O)O)=C([C@H]3CCCO3)S[C@H]12", "inactive"),
    ("CNc1c2c(nn1C)CCCC2", "inactive"),
    ("CCOC(=O)COc1ccc2c(C)c(CCN(CC)CC)c(=O)oc2c1Cl", "inactive"),
    ("Cc1cc(N)c2cc(NC(=O)Nc3ccc4nc(C)cc(N)c4c3)ccc2n1", "active"),
    ("CCOC(=O)c1ccc(OCCN2C[C@H](O)[C@@H](O)[C@H](O)[C@H]2CO)cc1", "inactive"),
    ("CC1(S(=O)(=O)O)CC(=O)c2ccccc2C1=O (stereo not given)", "active"),
    ("CCCC(CCC)C(N)=O", "inactive"),
    ("CC(=O)SCC(CC(=O)c1ccc(C)cc1)C(=O)O (stereo not given)", "inactive"),
    ("Cc1ccc2c(Br)cc(Br)c(O)c2n1", "active"),
    ("CC(C)NCCCC1(C(N)=O)c2ccccc2-c2ccccc21", "inactive"),
    ("OCCCc1ccccc1", "active"),
]
